- System: UniProt:P9WNX1
- Sequence (P9WNX1 whole entry): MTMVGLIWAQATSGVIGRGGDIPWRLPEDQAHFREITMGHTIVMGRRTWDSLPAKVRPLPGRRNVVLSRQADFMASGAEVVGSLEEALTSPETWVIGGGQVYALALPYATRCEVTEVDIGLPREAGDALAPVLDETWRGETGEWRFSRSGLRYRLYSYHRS
- Run description: Inhibition of Mycobacterium tuberculosis His-tagged DHFR assessed as reduction in consumption of NADPH using DHF as substrate measured every 30 secs over 6 mins by spectrophotometric method
Assay endpoint: IC50

Request: Input Cl.NC1=NC2(CCCCC2)N(c2ccc(OCc3cn(CCCCOc4ccc5ccc(=O)oc5c4)nn3)cc2)C(N)=N1 , output reported IC50.
Result: 0.82 µM

Request: Please indicate IC50 recorded for Cl.NC1=NC2(CCCCC2)N(c2ccc(OCc3cn(CCCc4ccccc4)nn3)cc2)C(N)=N1
Result: 5.82 µM

Request: Give recorded IC50. Cl.NC1=NC2(CCCCC2)N(Cc2cn(CCCCCOc3ccc4oc(=O)ccc4c3)nn2)C(N)=N1
Result: > 100 µM

Request: Tell me IC50 reported for Cl.NC1=NC2(CCCCC2)N(c2ccc(OCc3cn(CCCOc4ccc5ccc(=O)oc5c4)nn3)cc2)C(N)=N1
Result: 1.34 µM

----------
- System: Dihydrofolate reductase (Homo sapiens, UniProt P00374)
- Sequence (P00374 whole entry): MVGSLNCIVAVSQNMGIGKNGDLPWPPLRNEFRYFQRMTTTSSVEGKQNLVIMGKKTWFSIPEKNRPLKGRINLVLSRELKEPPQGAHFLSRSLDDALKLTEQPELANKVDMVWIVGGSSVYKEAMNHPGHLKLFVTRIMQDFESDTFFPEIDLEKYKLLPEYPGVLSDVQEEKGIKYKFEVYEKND
- Run description: Inhibition of recombinant human DHFR assessed as reduction in consumption of NADPH using DHF as substrate measured every 30 secs over 6 mins by spectrophotometric method
Assay endpoint: pIC50
// field semantics: pIC50 = negative decimal log of concentration (mol/L)

Request: Fill in pIC50 for record Cl.NC1=NC2(CCCCC2)N(c2ccc(OCc3cn(CCCc4ccccc4)nn3)cc2)C(N)=N1
Result: 5.44

Request: Dear colleague, please send me the reported pIC50 for Cl.NC1=NC2(CCCCC2)N(c2ccc(OCc3cn(CCCOc4ccc5ccc(=O)oc5c4)nn3)cc2)C(N)=N1 when you can.
Result: 4.92

Request: Tell me its pIC50 given Cl.NC1=NC2(CCCCC2)N(c2ccc(OCc3cn(CCCCOc4ccc5ccc(=O)oc5c4)nn3)cc2)C(N)=N1 as the entry.
Result: 4.81

----------
- Run description: Selectivity index, ratio of CC50 for cytotoxicity against human HepG2 cells to MIC90 for antimycobacterial activity against Mycobacterium tuberculosis H37Rv
- Assay type: toxicity, cell-based
- Run conditions: HepG2 cells versus Mycobacterium tuberculosis H37Rv, read-out: Selectivity Index
Please respond with reported selectivity ratio for every item in the list.

Request: Using known records, supply selectivity ratio for Cl.NC1=NC2(CCCCC2)N(c2ccc(OCc3cn(CCCCOc4ccc5ccc(=O)oc5c4)nn3)cc2)C(N)=N1
Result: > 4000

Request: Output selectivity ratio of Cl.NC1=NC2(CCCCC2)N(c2ccc(OCc3cn(CCCOc4ccc5ccc(=O)oc5c4)nn3)cc2)C(N)=N1
Result: > 4000

----------
Would you mind telling me the reported CC50 of each entry?
- Run description: Cytotoxicity against human HepG2 cells assessed as reduction in cell viability by MTS assay
- Format: cell-based

Request: State its CC50: Cl.NC1=NC2(CCCCC2)N(c2ccc(OCc3cn(CCCCOc4ccc5ccc(=O)oc5c4)nn3)cc2)C(N)=N1
Result: > 100 µM

Request: Look up and report measured CC50 for this entry: Cl.NC1=NC2(CCCCC2)N(c2ccc(OCc3cn(CCCOc4ccc5ccc(=O)oc5c4)nn3)cc2)C(N)=N1
Result: > 100 µM

----------
So I've got a bunch of compounds here, and I need their microsomal CLint at 3 µM values.
- Run description: Intrinsic clearance in female rat liver microsomes at 3 uM preincubated for 5 mins followed by NADPH addition measured up to 45 mins by LC-MS/MS analysis
- Type: ADME, microsome
- Run conditions: read-out: CLH
Provide the reading as a plain figure in µL/min/mg.

Request: Item Cl.NC1=NC2(CCCCC2)N(c2ccc(OCc3cn(CCCOc4ccc5ccc(=O)oc5c4)nn3)cc2)C(N)=N1 : provide microsomal CLint at 3 µM
Result: 8.6

Request: Please list microsomal CLint at 3 µM recorded for the compound Cl.NC1=NC2(CCCCC2)N(c2ccc(OCc3cn(CCCCOc4ccc5ccc(=O)oc5c4)nn3)cc2)C(N)=N1
Result: 20.4
